# SYSTEM NAME: human C1r, activated (Homo sapiens, UniProt P00736)
# Sequence (P00736 18-463 limits assumed): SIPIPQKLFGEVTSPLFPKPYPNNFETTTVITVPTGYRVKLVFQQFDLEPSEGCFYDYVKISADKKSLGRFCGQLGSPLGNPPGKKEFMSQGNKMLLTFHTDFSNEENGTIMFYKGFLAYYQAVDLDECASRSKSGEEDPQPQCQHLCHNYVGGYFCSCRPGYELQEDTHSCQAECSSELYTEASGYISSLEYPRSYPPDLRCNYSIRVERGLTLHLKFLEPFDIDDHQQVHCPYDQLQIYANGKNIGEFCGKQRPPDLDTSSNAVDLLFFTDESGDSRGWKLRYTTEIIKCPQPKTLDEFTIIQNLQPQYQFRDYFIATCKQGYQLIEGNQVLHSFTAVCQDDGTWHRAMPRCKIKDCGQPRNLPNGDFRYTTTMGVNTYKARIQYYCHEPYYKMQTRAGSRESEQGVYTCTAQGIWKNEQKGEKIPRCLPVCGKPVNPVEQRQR
# Sequence (P00736 464-705 limits assumed): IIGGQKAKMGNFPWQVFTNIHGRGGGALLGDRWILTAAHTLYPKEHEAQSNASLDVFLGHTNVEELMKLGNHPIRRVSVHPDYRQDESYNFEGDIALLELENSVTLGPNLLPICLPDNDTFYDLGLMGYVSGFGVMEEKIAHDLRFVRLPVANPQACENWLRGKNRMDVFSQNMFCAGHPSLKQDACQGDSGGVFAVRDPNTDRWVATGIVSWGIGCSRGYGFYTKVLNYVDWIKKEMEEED
# TEST METHOD NOTES: Affinity (Ki,app) for protease
# Type: biochemical
Positions of bridges follow the written chain, without caps; N, C: chain ends. No end group written: not given here.

SEQ TEXT: EAMHSFCAFKADDGPCRAAHPRWFFNIFTRQCEEFIYGGCEGNQNRFESLEECKKMCTRD (disulfide 7-57, 16-40, 32-53) [PEP-1]
Ki: > 200 µM

* * *

# SYSTEM NAME: human C1s, activated (Homo sapiens, UniProt P09871)
# Sequence (P09871 16-437 limits assumed): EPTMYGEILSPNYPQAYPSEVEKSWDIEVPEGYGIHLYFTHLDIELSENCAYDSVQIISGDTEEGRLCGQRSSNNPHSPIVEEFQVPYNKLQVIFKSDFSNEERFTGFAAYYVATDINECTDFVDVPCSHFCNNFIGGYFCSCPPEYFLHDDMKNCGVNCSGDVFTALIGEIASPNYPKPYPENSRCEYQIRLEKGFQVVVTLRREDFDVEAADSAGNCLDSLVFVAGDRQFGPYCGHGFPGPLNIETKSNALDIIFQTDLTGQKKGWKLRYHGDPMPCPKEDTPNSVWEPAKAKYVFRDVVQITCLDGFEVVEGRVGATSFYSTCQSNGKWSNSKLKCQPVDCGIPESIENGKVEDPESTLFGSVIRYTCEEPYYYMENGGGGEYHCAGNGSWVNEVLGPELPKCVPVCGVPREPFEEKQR
# Sequence (P09871 438-688 limits assumed): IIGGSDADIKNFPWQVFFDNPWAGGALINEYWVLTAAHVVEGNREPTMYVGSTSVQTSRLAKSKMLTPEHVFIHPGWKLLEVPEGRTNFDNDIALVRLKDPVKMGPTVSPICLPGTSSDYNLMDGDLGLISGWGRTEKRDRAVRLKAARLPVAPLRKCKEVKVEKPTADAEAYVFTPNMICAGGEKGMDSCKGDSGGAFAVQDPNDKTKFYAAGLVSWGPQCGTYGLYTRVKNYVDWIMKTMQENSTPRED
# TEST METHOD NOTES: Affinity (Ki,app) for protease
# Assay type: biochemical
pKi: −log10 of the molar value. Positions of bridges follow the written chain, without caps; N, C: chain ends. No end group written: not given here.

SEQ TEXT: EAMHSFCAFKADDGPCRAAHPRWFFNIFTRQCEEFIYGGCEGNQNRFESLEECKKMCTRD (disulfide 7-57, 16-40, 32-53) [PEP-1]
SYSTEM NAME: human C1s, activated (Homo sapiens, UniProt P09871)
pKi: < 4.70
